B1: library; numbered along this chain (parent)
chain: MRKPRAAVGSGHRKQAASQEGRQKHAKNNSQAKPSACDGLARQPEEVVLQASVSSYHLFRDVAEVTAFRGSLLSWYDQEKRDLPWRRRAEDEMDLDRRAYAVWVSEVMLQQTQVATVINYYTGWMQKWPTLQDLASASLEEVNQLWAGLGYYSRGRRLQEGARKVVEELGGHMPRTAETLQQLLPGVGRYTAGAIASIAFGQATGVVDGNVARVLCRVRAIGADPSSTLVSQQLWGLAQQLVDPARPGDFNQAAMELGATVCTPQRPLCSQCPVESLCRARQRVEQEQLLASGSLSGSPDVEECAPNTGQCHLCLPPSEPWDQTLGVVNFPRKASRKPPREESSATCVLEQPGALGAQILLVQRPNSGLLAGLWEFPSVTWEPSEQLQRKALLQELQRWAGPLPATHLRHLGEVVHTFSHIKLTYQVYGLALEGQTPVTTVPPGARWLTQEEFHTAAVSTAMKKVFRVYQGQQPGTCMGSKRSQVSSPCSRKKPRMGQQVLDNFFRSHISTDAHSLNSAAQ

variants of: B1; experiment: 8OG:A repair function score (normalized; synonymous = 0, nonsense = -1) (normalized log-likelihood score); higher = more repair activity (WT-like); conditions: with 8OG:A DNA repair reporter (GFP) in HEK-293 MUTYH KO cells;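 note: cells sorted at 72 h after reporter transfection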
Label y when 8OG:A repair function score is at or above -0.2; otherwise label n.

The following variants have reported results that may help.
| variant-identifier | classification |
| --- | --- |
| G170E | y |
| R398L | n |
| A291K | y |

Query :: Entry A63G : is its 8OG:A repair function score no less than -0.2?
Result :: y

Query :: Now try F376D .
Result :: n

Query :: Now try Q252R .
Result :: n

Query :: Now try R97A .
Result :: y

Query :: Now try M478R .
Result :: y

Query :: Now try D94T .
Result :: y
